Biological target: CaFus1
Assay: SPOT peptide array binding signal intensity (averaged, normalized) (arbitrary units (background-subtracted, floor 0; scale differs between SH3 domains)); higher = stronger binding of the SH3 domain to the peptide
Task for the reader: assign each of the following binders its reported SPOT peptide array binding signal intensity.
One number for each entry.

Below, each entry is followed by its recorded SPOT peptide array binding signal intensity result.
**Q:** Entry PKMLPIPSKPTLFDL : reported SPOT peptide array binding signal intensity = ?
**A:** 852

**Q:** Entry FPPKRKPLLRPQRSD : reported SPOT peptide array binding signal intensity = ?
**A:** 589

Please give SPOT peptide array binding signal intensity for each item listed below.
1. VPPVPLPFGIPPFPM
2. RRGPAPPPPPRASRP
3. DRIRMFIRFPKFLLE
4. RRRRRPHRIERPLSN
5. NGRRRPKFRVQLSGN

**A:**
1: 102; 2: 124; 3: 1830; 4: 525; 5: 3650
